Test system: PC-3 prostate
procedure.details: NCI tumour cell line growth inhibition, 48 h; in the data active means GI50 below about 0.43 µM; inactive means the rest
Please reply with one of these outcomes: active, inactive

See these solved cases before continuing.
[
  {
    "compound": "O=C1NC(=O)C(N2CCc3ccccc32)=C1c1ccc(Cl)cc1",
    "discrete.label": "inactive"
  },
  {
    "compound": "Cc1cc(Br)c2nsnc2c1[N+](=O)[O-]",
    "discrete.label": "inactive"
  },
  {
    "compound": "O=C(CCCCCNC1=CC(=O)c2ccccc2C1=O)NCCC[Te]c1ccccc1",
    "discrete.label": "active"
  }
]

Which result was noted for this molecule in the test: "Cc1cc(NS(=O)(=O)c2ccc(NC(=O)COc3ccc(-c4cc5ccccc5[nH]4)cc3)cc2)no1" inactive

Which result was noted for this molecule in the test: "O=[N+]([O-])c1ccc(Oc2cccc(C(F)(F)F)c2)c([N+](=O)[O-])c1" inactive

###

Collected GI50 values appear next to each entry.
System: IGROV1 ovarian
procedure.details: NCI tumour cell line growth inhibition, 48 h
*1 amine or outer side, *2 acyl side, *3 side chain or, on linkers, in order; H or OH if unused. Where a SMILES comes first, the peptide text is derived from it. Bridges are numbered along the chain shown (N, C = ends). Roman numbers before positions name the chains, in order. X23 = CCCCCCCCCCCCCCC(=O)NC(CCCCN[*:2])C(=O)CN1CCCC1C(=O)[*:1]

[
  {
    "compound": "Cc1cc(Br)c2nsnc2c1[N+](=O)[O-]",
    "GI50": "1.65 µM"
  },
  {
    "compound": "Cc1ccc(C2NC(=S)N3C(c4ccc(C)cc4)NC(=S)N23)cc1 (stereo not drawn)",
    "GI50": "8.5 µM"
  },
  {
    "compound": "CCCCCCCCCCCCCCC(=O)NC(CCCCNC(=O)C1CCCN1C(=O)C(CCCCN)NC(=O)C(CCCCN)NC(=O)C(CCCCN)NC(=O)C(CCCNC(=N)N)NC(=O)C(CCCCN)NC(=O)C(N)C(C)C)C(=O)CN1CCCC1C(=O)NCC(=O)NC(Cc1ccccc1)C(=O)N1CCCC1C(=O)NC(CO)C(=O)NC(Cc1ccc(O)cc1)C(=O)NC(CCCCN)C(=O)NC(CC(C)C)C(=O)NC(CCCNC(=N)N)C(=O)N1CCCC1C(=O)NCC(N)=O (stereo not drawn) (I: GFPSYKLRPG-NH2 / II: H-VKRKKKP; linker I:N-II:C via X23; configuration not given here)",
    "GI50": "14.8 µM"
  },
  {
    "compound": "NC(Cc1ccc(O)cc1)C(=O)N/N=C/c1ccc(N(CCCl)CCCl)cc1 (stereo not drawn)",
    "GI50": "11.5 µM"
  },
  {
    "compound": "CCOP(=O)(CCN1CCN(CCCCCOc2cc3c(cc2OC)C(=O)N2CCC[C@H]2C=N3)CC1)OCC",
    "GI50": "2.74 µM"
  },
  {
    "compound": "N#Cc1ccc(N2Cc3cc(Cl)ccc3OC3=C2C(=O)N(Cc2ccc(F)cc2)C3=O)cc1",
    "GI50": "0.804 µM"
  },
  {
    "compound": "C=C1C(=O)O[C@H]2[C@H]1CC/C(COC(=O)c1cccc3ccccc13)=C\\CC[C@@]1(C)O[C@@H]21",
    "GI50": "1.03 µM"
  }
]

# context switch: different compound, same GI50
Item under review: "CC(=O)Nc1cc(C(c2ccccc2)c2ccccc2)cc(C(c2ccccc2)c2ccccc2)c1C" . Reported GI50? 32.5 µM
